Where these numbers come from: paper PMC5681660

- Target system: human NTCP (Homo sapiens, UniProt Q14973)
- Sequence (Q14973 whole entry): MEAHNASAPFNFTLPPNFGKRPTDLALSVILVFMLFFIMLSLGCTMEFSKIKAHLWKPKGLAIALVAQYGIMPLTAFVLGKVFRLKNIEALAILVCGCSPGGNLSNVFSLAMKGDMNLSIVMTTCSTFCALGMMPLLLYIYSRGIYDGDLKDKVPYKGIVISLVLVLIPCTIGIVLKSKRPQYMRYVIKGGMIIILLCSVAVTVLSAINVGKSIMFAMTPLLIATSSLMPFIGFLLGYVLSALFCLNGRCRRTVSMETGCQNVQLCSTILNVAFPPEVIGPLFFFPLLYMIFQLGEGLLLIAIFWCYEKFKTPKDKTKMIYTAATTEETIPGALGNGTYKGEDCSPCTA
- Assay text: Screening taurocholate uptake assay (96-well, [14C]taurocholate, 10 µM drug)
- Reported conditions: ranking score beside the functional and binding assay B-scores of the screen
Structures can show the parent of a compound that is named as a salt.
Reported Ranking score is given for each of the following compounds.
Measured metric: Ranking score

COc1cc(N)c(Cl)cc1C(=O)NC1CCN(Cc2ccccc2)CC1 [Clebopride maleate] = 697.485
C[C@@H]1[C@H](O)[C@@H](C)/C=C/C=C/CC/C=C/C=C/C=C/C=C/C(O[C@H]2O[C@H](C)[C@@H](O)[C@H](N)[C@@H]2O)CC2O[C@](O)(CC(O)C(O)CCC(O)CC(O)CC(O)CC(=O)O[C@H]1C)CC(O)C2C(=O)O (stereo partly drawn) [Nystatine] = 804.798
O=C(CCCN1CC=C(n2c(=O)[nH]c3ccccc32)CC1)c1ccc(F)cc1 [Droperidol] = 713.526
